Test system: human APOE RNA
Procedure text: Dose-dependent inhibition of human APOE RNA in differentiated SH-SY5Y cells, free uptake, 5 days (Example 5)
Type: cell-based
Condition notes: 5 nM, 5 days (Table 14)
Strand notation (5' to 3'): a small letter for the sugar, then the base; units joined by * are phosphorothioate-linked, units joined directly phosphodiester-linked; [ ] holds rarer units or linkages, { } end groups; capitals alone tell only the bases. [ms] = mesyl phosphoramidate linkage; e = 2'-O-(2-methoxyethyl) (MOE); k = constrained ethyl (cEt); [5mC] = 5-methylcytosine; d = 2'-deoxy (DNA)
I would appreciate it if you labelled entries y when APOE RNA (% UTC) is 70 % UTC or higher, otherwise n.

Substance	Class assignment
1757575 (eA*e[5mC]eTeT*kG*kG*dT*dG[ms]dA[ms]dA[ms]dT*d[5mC]*dT*dT*dT*dA[ms]kT*eT*eA*eA; antisense) [Compound 1757575]	n
1785617: modified oligonucleotide complementary to human APOE RNA (k[5mC]*dT[ms]dT[ms]kG*dG[ms]kT*dG[ms]dA[ms]dA[ms]dT[ms]d[5mC]*dT*dT*dT*dA*dT*kT*kA*dA[ms]kA; antisense) [compound 1785617]	y
1746784 (k[5mC]*kT*kT*dG[ms]dG[ms]dT[ms]dG[ms]dA[ms]dA[ms]dT*d[5mC]*dT*dT*dT*dA[ms]dT*kT*kA*dA[ms]kA; antisense) [Compound 1746784]	y
1778111: modified oligonucleotide complementary to human APOE RNA (eA*e[5mC]eTeTeG*kG*dT*dG[ms]dA[ms]dA*dT*d[5mC]*dT*dT*dT*dA[ms]eTeT*eA*eA; antisense) [compound 1778111]	n

---

Test system: human APOE RNA
Procedure text: Dose-dependent reduction of human APOE RNA in HepG2 cells, electroporation, 20,000 cells per well, normalized to PPIA (Example 4, Table 11)
Type: cell-based
Condition notes: HepG2 cells, 20,000 cells per well, approximately 24 hours, PPIA-normalized, 8,000 nM
Method: HepG2 cells plated at a density of 20,000 cells per well were treated by electroporation with various concentrations of modified oligonucleotide as specified in the tables below. […] APOE RNA levels were measured using the human primer probe set RTS3073 (described herein above). […] The half maximal inhibitory concentration (IC50) of each modified oligonucleotide was calculated in GraphPad Prism 10 (GraphPad Software, San Diego, CA) and is also presented in the table below.
Strand notation (5' to 3'): a small letter for the sugar, then the base; units joined by * are phosphorothioate-linked, units joined directly phosphodiester-linked; [ ] holds rarer units or linkages, { } end groups; capitals alone tell only the bases. [ms] = mesyl phosphoramidate linkage; e = 2'-O-(2-methoxyethyl) (MOE); k = constrained ethyl (cEt); [5mC] = 5-methylcytosine; d = 2'-deoxy (DNA)
Recorded measurements of APOE RNA (% UTC) 8,000 nM, one per entry

Substance	APOE RNA (% UTC) 8,000 nM
^mCksTksTksGdzGdzTdzGdzAdzAdzTds^mCdsTdsTdsTdsAdsTdsTksAksAdzAk (antisense k[5mC]*kT*kT*dG[ms]dG[ms]dT[ms]dG[ms]dA[ms]dA[ms]dT*d[5mC]*dT*dT*dT*dA*dT*kT*kA*dA[ms]kA) [Compound No. 1785602]	8
Aks^mCeoTeoTesGesGksTdsGdzAdzAdzTds^mCdsTdsTdsTdsAdzTksTksAesAe (kA*e[5mC]eTeT*eG*kG*dT*dG[ms]dA[ms]dA[ms]dT*d[5mC]*dT*dT*dT*dA[ms]kT*kT*eA*eA) [Compound No. 1809635]	4
Aes^mCeoTeoTesGesGksTdsGdzAdzAdzTds^mCdsTdsTdsTdsAdzTksTksAesAe (eA*e[5mC]eTeT*eG*kG*dT*dG[ms]dA[ms]dA[ms]dT*d[5mC]*dT*dT*dT*dA[ms]kT*kT*eA*eA) [Compound No. 1757576]	3
TezTeoGeoGksTdsGdzAdzAdzTds^mCdsTdsTdsTdsAdzTksTksAesAesAes^mCe (antisense eT[ms]eTeGkG*dT*dG[ms]dA[ms]dA[ms]dT*d[5mC]*dT*dT*dT*dA[ms]kT*kT*eA*eA*eA*e[5mC]) [Compound No. 1809814]	8

---

Test system: human APOE RNA
Procedure text: Dose-dependent inhibition of human APOE RNA in HepG2 cells, electroporation, 24 hours (Example 6)
Assay type: cell-based
Condition notes: 1,280 nM
Strand notation (5' to 3'): a small letter for the sugar, then the base; units joined by * are phosphorothioate-linked, units joined directly phosphodiester-linked; [ ] holds rarer units or linkages, { } end groups; capitals alone tell only the bases. [ms] = mesyl phosphoramidate linkage; e = 2'-O-(2-methoxyethyl) (MOE); k = constrained ethyl (cEt); [5mC] = 5-methylcytosine; d = 2'-deoxy (DNA)
Assign class by APOE RNA (% UTC): not lower than 50 % UTC means Yes; lower than 50 % UTC means No.

Substance	Class assignment
1736517 (e[5mC]*eTeTeG*kG*kT*dG[ms]dA[ms]dA[ms]dT*d[5mC]*dT*dT*dT*dA[ms]dT*eT*eA*eA*eA; antisense) [Compound 1736517]	No
1736492 (e[5mC]*eTeT*eG*eG*eT*dG[ms]dA[ms]dA[ms]dT*d[5mC]*dT*dT*dT*dA[ms]dT*kT*eA*eA*eA; antisense) [Compound 1736492]	Yes
1736532 (e[5mC]*eT*eT*eG*kG*kTdG[ms]dA[ms]dA[ms]dT*d[5mC]*dT*dT*dT*dA[ms]dT*eT*eA*eA*eA; antisense) [Compound 1736532]	No
1693102: 6-10-4 MOE gapmer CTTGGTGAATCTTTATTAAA, linkages ssssoszzzssssszssss (e[5mC]*eT*eT*eG*eGeT*dG[ms]dA[ms]dA[ms]dT*d[5mC]*dT*dT*dT*dA[ms]dT*eT*eA*eA*eA) [compound 1693102]	No
1736513 (e[5mC]*eTeT*eG*eG*kT*dG[ms]dA[ms]dA[ms]dT*d[5mC]*dT*dT*dT*dA[ms]dT*eT*eA*eA*eA; antisense) [Compound 1736513]	No
1693105: 6-10-4 MOE gapmer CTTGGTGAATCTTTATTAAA, linkages sosssszzzssssszssss (e[5mC]*eTeT*eG*eG*eT*dG[ms]dA[ms]dA[ms]dT*d[5mC]*dT*dT*dT*dA[ms]dT*eT*eA*eA*eA) [compound 1693105]	No
1693101: 6-10-4 MOE gapmer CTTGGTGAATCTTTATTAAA, linkages sssssozzzssssszssss (e[5mC]*eT*eT*eG*eG*eTdG[ms]dA[ms]dA[ms]dT*d[5mC]*dT*dT*dT*dA[ms]dT*eT*eA*eA*eA) [compound 1693101]	Yes

---

System: human APOE RNA
Procedure text: Activity in APOE C57BL/6NTac-Apoeem7250 knock-in mice, single ICV bolus, 4 weeks (Example 10)
Format: in vivo
Condition notes: spinal cord; single ICV bolus 300 μg; 4 weeks post treatment; normalized to mouse Ppia
Strand notation (5' to 3'): a small letter for the sugar, then the base; units joined by * are phosphorothioate-linked, units joined directly phosphodiester-linked; [ ] holds rarer units or linkages, { } end groups; capitals alone tell only the bases. [ms] = mesyl phosphoramidate linkage; e = 2'-O-(2-methoxyethyl) (MOE); k = constrained ethyl (cEt); [5mC] = 5-methylcytosine; d = 2'-deoxy (DNA)

Substance	Experimental system	Unit abbreviation	APOE RNA (% control) Spinal Cord
1757575 (eA*e[5mC]eTeT*kG*kG*dT*dG[ms]dA[ms]dA[ms]dT*d[5mC]*dT*dT*dT*dA[ms]kT*eT*eA*eA; antisense) [Compound 1757575]	human APOE RNA	% control	27
1785600 (k[5mC]*kT*kT*dG[ms]dG[ms]dT[ms]dG*dA*dA*dT*d[5mC]*dT[ms]dT[ms]dT[ms]dA*dT*kT*kA*dA[ms]kA; antisense) [Compound 1785600]	human APOE RNA	% control	51
1785591 (k[5mC]*kT*kT*dG[ms]dG[ms]dT[ms]dG*dA*dA*dT*d[5mC]*dT[ms]dT[ms]dT*dA*dT*kT*kA*dA[ms]kA; antisense) [Compound 1785591]	human APOE RNA	% control	39
1757574 (eA*e[5mC]eTeT*eG*eG*dT*dG[ms]dA[ms]dA[ms]dT*d[5mC]*dT*dT*dT*dA[ms]kT*kT*eA*eA; antisense) [Compound 1757574]	human APOE RNA	% control	32
1779699 (e[5mC]*eTeT*kG*kG*eT*dG[ms]dA[ms]dA[ms]dT*d[5mC]*dT*dT*dT*dA[ms]dT*eT*eA*eA*eA; antisense) [Compound 1779699]	human APOE RNA	% control	54
1693101: 6-10-4 MOE gapmer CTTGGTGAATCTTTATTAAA, linkages sssssozzzssssszssss (e[5mC]*eT*eT*eG*eG*eTdG[ms]dA[ms]dA[ms]dT*d[5mC]*dT*dT*dT*dA[ms]dT*eT*eA*eA*eA) [compound 1693101]	human APOE RNA	% control	56
1778108 (eA*e[5mC]eTeTeG*kG*dT*dG[ms]dA[ms]dA*dT*d[5mC]*dT*dT*dT*dA[ms]eT*eT*eA*eA; antisense) [Compound 1778108]	human APOE RNA	% control	41
1778122 (eA*e[5mC]eTeTeG*eG*dT*dG[ms]dA[ms]dA*dT*d[5mC]*dT*dT*dT*dA[ms]kT*kT*eA*eA; antisense) [Compound 1778122]	human APOE RNA	% control	62
1746796 (k[5mC]*kT*dT[ms]dG[ms]kG*dT[ms]dG[ms]dA[ms]dA[ms]dT*d[5mC]*dT*dT*dT*dA[ms]dT*kT*dA[ms]kA*kA; antisense) [Compound 1746796]	human APOE RNA	% control	68
1779706 (e[5mC]*eTeTkGkG*dT[ms]dG[ms]dA[ms]dA*dT*d[5mC]*dT*dT*dT*dA*dT*eT*eA*eA*eA; antisense) [Compound 1779706]	human APOE RNA	% control	53
1746799 (k[5mC]*dT[ms]kT*dG[ms]kG*dT[ms]dG[ms]dA[ms]dA[ms]dT*d[5mC]*dT*dT*dT*dA[ms]dT*kT*dA[ms]kA*kA; antisense) [Compound 1746799]	human APOE RNA	% control	42
1779961 (e[5mC]*eTeT*kG[ms]kG*eT*dG[ms]dA[ms]dA[ms]dT*d[5mC]*dT*dT*dT*dA[ms]dT*eT*eA*eA*eA; antisense) [Compound 1779961]	human APOE RNA	% control	53
1746810 (k[5mC]*dT[ms]kT*dG[ms]dG[ms]kT*dG[ms]dA[ms]dA[ms]dT*d[5mC]*dT*dT*dT*dA[ms]dT*dT[ms]kA*kA*kA; antisense) [Compound 1746810]	human APOE RNA	% control	80
1746786 (k[5mC]*kT*dT[ms]dG[ms]kG*dT[ms]dG[ms]dA[ms]dA[ms]dT*d[5mC]*dT*dT*dT*dA[ms]dT*kT*kA*dA[ms]kA; antisense) [Compound 1746786]	human APOE RNA	% control	52
